# Tested on: RAW-Dual (murine macrophage reporter line)
# experiment notes: viability score (confluency relative to resting cells, overnight) (fraction); higher = more viable, active = viable (0.7 or more)
# run conditions: modulator concentration 10 µM
Simple rule here: viability score less than 1 is criterion met, otherwise criterion not met.

A selection of reference data follows.
compound: COc1ccc(C=NNc2nc(Nc3ccc(C)cc3Br)nc(N3CCOCC3)n2)c(OC)c1
cat: criterion not met
//
compound: O=C(O)CCCNC(=O)c1ccccc1C(=O)O
cat: criterion not met

Data request: Does the reported viability score of CS(=O)(=O)N(CC(=O)Nc1ccccc1Cl)c1ccc(Cl)c(C(F)(F)F)c1 stay below 1?
Data returned: criterion met

Data request: Does this compound meet the criterion viability score < 1? CC(=O)n1cc(C=C(C)[N+](=O)[O-])c2ccccc21
Data returned: criterion met

Data request: API: query returns whether the compound falls strictly under 1 in viability score. Query: COc1ccc2c(C)nc(Nc3nc(C)cc(-c4ccccc4)n3)nc2c1
Data returned: criterion not met

Data request: is_below(viability score, 1) for Cc1[nH]c2ccccc2c1CCNCc1ccc(/C=C/C(=O)NO)cc1 ?
Data returned: criterion met

Data request: Regarding CCCCCCCCCCCC1=C(O)C(=O)C=C(O)C1=O , kindly confirm whether its viability score is beneath 1.
Data returned: criterion met

Data request: viability score under 1? Item: COC(c1ccccc1)(c1ccccc1)C(Oc1nc(C)cc(C)n1)C(=O)O (centres undefined) [Prestw-1497]
Data returned: criterion not met

Data request: viability score under 1? Item: CNCCC=C1c2ccccc2CCc2ccccc21.Cl
Data returned: criterion met

Data request: Please check: viability score for O=c1n(CCCN2CCN(c3cccc(Cl)c3)CC2)nc2ccccn12 [Prestw-292] , strictly under 1 or not?
Data returned: criterion not met

Data request: For this compound, is viability score lower than 1? CN(C/C=C/C#CC(C)(C)C)Cc1cccc2ccccc12.Cl
Data returned: criterion met
